Taken from ChEMBL document CHEMBL4513216.

experiment: Toxicity liver stage against HepG2, at 10uM; type: cell-based; design: test concentration 10 uM, cell line HepG2-A16-CD81EGFP; settings: human, HepG2-A16-CD81EGFP cells; read-out: INHIBITION
I'd be grateful if you could share measured cytotoxicity at 10 µM for these entries.
Form entry: value (%) — number only.

Reported cytotoxicity at 10 µM of Cn1c(CN2CCCCC2)nnc1C1CCCN(c2ccncc2F)C1 (centres undefined) : -0.37

Lab book: cytotoxicity at 10 µM of `CCNC(=O)NC[C@@H]1C=C(C)[C@H](CC(=O)NCCN(C)C)C[C@H]1C(C)C` noted as 2.43

Entry O=C(NC1CC1)C(c1ccccc1)N1CCn2c(nnc2C2CC2)C1 (centres undefined) ; cytotoxicity at 10 µM = -6.22

Short answer for `Cn1cncc1-c1nnc([C@H]2CCN(Cc3cccnc3)C2)o1` : cytotoxicity at 10 µM was -4.39

Lab note: measured cytotoxicity at 10 µM of Cc1ccccc1C(C(=O)NCCSC(C)C)N(C)C (centres undefined) was 9.38

Measured cytotoxicity at 10 µM, `Cc1cccc(NC(=O)N2Cc3c(CN(C)C)nn(C)c3C2)c1` : 7.77

GET /value?item= CN1CCC(NC(=O)Nc2ccc(Br)c(F)c2)C1=O (centres undefined) &field=cytotoxicity at 10 µM returns -147

Sample `CC(=O)c1cnc(N(C)Cc2cc(C)cc(C)n2)nc1C` ; cytotoxicity at 10 µM observed: 8.81

Notebook: `CC(=O)N1CCC2(CC1)c1ncc(-c3ccc(F)cc3)n1CCN2C` , cytotoxicity at 10 µM read as -101

---

Could you please report measured cytotoxicity at 10 µM for the items listed next?
test: Toxicity liver stage against HepG2, at 10uM; format: cell-based; design: test concentration 10 uM, cell line HepG2-A16-CD81EGFP; settings: human, HepG2-A16-CD81EGFP cells; read-out: INHIBITION
Could you give me the number in %? Just the number is fine.

# cytotoxicity at 10 µM of `Cc1oc(C)c(C(=O)NCc2cccnc2N(C)C)c1C` = -0.292

Entry Cc1cnn(C2CCCN(C(=O)CCCOc3ccccc3F)C2)c1 (stereo unspecified) — recorded cytotoxicity at 10 µM = -7.52

Entry under test: `O=C(c1cnco1)N1CCC(Cc2cnc3ccccc3c2)CC1` . Its cytotoxicity at 10 µM was 5.08

Form field cytotoxicity at 10 µM, entry CC(=O)Nc1nc(C(=O)NC(C)c2ccc3c(c2)OCCO3)cs1 (stereo unspecified) : 0.409

For reference, reported cytotoxicity at 10 µM for `Cc1nc(COC[C@@]23CCC[C@@H]2CN(Cc2nccs2)C3)cs1` stands at 12.9

What the record says about `CCCNC(=O)N1CCc2ccc(S(=O)(=O)N3CCOCC3)cc2C1` : cytotoxicity at 10 µM is -2.56

Reported cytotoxicity at 10 µM for Cc1csc(N2CCN(CC(=O)N3CCNC3=O)CC2C)n1 (stereo unspecified) was -12.4

Record `O=C(c1cnccn1)N1CC[C@H]2[C@@H]1CCC(=O)N2c1cccnc1` , field cytotoxicity at 10 µM: -81.6

Reported cytotoxicity at 10 µM for `CC(C)[C@@H]1CN(C(=O)CN(C)Cc2ccccc2)C[C@H]1C(=O)O` was -3.99

The recorded cytotoxicity at 10 µM for `O=C(CN1CCc2cncnc2C1)Nc1ccc(Cl)cn1` is -3.24

The compound identified as COc1ccc(CN(C)CC2(O)CCN(C(=O)c3cccn3C)C2)cc1 (stereo unspecified) registered its cytotoxicity at 10 µM at 5.4

Record summary for Cc1nc(C)n(CC2CCCCN2Cc2ncc(C(C)(C)C)o2)n1 (stereo unspecified) : reported cytotoxicity at 10 µM = 0.299

So, COCC1CC2(CCN(C(C)=O)CC2)CN1Cc1csc(C)n1 (stereo unspecified) ? Its cytotoxicity at 10 µM was 9.19

Record O=C1N(CC2CCC2)CCCC12CCN(S(=O)(=O)c1cccnc1)C2 (stereo unspecified) , field cytotoxicity at 10 µM: 9.94

Memo: COc1cccc(S(=O)(=O)N2CCCCC2CCN2CCCC2=O)c1 (stereo unspecified) , reported cytotoxicity at 10 µM: 7.12

# cytotoxicity at 10 µM (compound: `c1csc(CN2CCn3c(Cn4cncn4)cnc3C2)n1` ) is -5.97

Reported cytotoxicity at 10 µM for `Cc1cccc(NC(=O)c2ccc(OCc3nnnn3C)cc2)n1` was -34.1

Given item `CCc1ccccc1OC1CN(C(=O)c2cccs2)C1` , the value recorded as its cytotoxicity at 10 µM is 13.7

Notebook: `CCCn1c(C)c(CC(=O)N(C)CC(=O)OC)c2c1CC(C)(C)CC2=O` , cytotoxicity at 10 µM read as -0.839

// sample `CCCc1cc(C(=O)NCCC2=CCCCC2)[nH]n1` , its cytotoxicity at 10 µM was -51.8

Entry Cc1cn[nH]c1C1COCCN1S(=O)(=O)c1cn[nH]c1 (stereo unspecified) — recorded cytotoxicity at 10 µM = -24.6

Given item CCC1=NC(SCC(=O)c2ccc(OC)cc2)c2cc(CC)sc2N1 (stereo unspecified) , the value recorded as its cytotoxicity at 10 µM is 9.4

The compound listed as `CCOCC(=O)N(Cc1ccco1)c1ccc(OC)c(F)c1` has a reported cytotoxicity at 10 µM of -2.75

Recorded result, `O=C(CCc1ccsc1)N1CCC(n2cc(CO)nn2)CC1` , cytotoxicity at 10 µM: -3.37

Record CCN(Cc1ccncc1)CC1(O)CCN(C(=O)c2cccc(C)c2)C1 (stereo unspecified) , field cytotoxicity at 10 µM: -25.1

// sample CC(c1ncc(-c2ccccc2)o1)N1CCN(C(=O)C(C)(C)C)CC1 (stereo unspecified) , its cytotoxicity at 10 µM was 17.4

So for O=C(Cc1ccccc1F)N1CCCCC1c1ccn2ccnc2n1 (stereo unspecified) , the logged cytotoxicity at 10 µM turned out to be -3.83

Entry `Cc1ccnn1CC(=O)N(C)Cc1ccc(-n2cccn2)cc1` — recorded cytotoxicity at 10 µM = 0.0616

cytotoxicity at 10 µM recorded for this compound, `CC(C)OCCCNC(=O)CN1CCC(N2CCN(C)C2=O)CC1` , is -6.82

Looking up CC1CN(c2ccc(CNC(=O)NCc3ccoc3)cn2)CCO1 (stereo unspecified) , I found its cytotoxicity at 10 µM recorded as 4.38

// recorded cytotoxicity at 10 µM for `CCCc1nc(CN(CC)C(=O)c2ccc3c(c2)nnn3C)no1` : 9.43

cytotoxicity at 10 µM recorded for this compound, O=C(NCCc1nccs1)C1CCCN(Cc2ccco2)C1 (stereo unspecified) , is 1.5

Form: compound = `CCN(CC)C(=O)CNC(=O)c1ccc(-c2ccsc2)nc1C` ; cytotoxicity at 10 µM = 22.9

compound `CCSCCN1CCCN(S(C)(=O)=O)CC1` , cytotoxicity at 10 µM observed: -2.75

cytotoxicity at 10 µM for CCN(CC)Cc1ccc(C(=O)N2CCCC2Cn2cccn2)cc1 (stereo unspecified) is -10.7

// recorded cytotoxicity at 10 µM for `c1nc(COCC2CC2)c2n1CCCN(CC1CC1)C2` : -4.77

---

For each entry below, report its cytotoxicity at 10 µM value.
assay: Toxicity liver stage against HepG2, at 10uM; format: cell-based; set-up: test concentration 10 uM, cell line HepG2-A16-CD81EGFP; details: human, HepG2-A16-CD81EGFP cells; read-out: INHIBITION
Value expressed in %; do not type the unit.

// recorded cytotoxicity at 10 µM for CN1CCOC(C(=O)N2CCC3(CCCCC3)C2)C1 (stereo not drawn) : 5.41

Lookup result for CN(C)c1ccc(CN(CC2CCCO2)C(=O)c2csnn2)cc1 (stereo not drawn) ; measured cytotoxicity at 10 µM: -1.59

cytotoxicity at 10 µM in this record for `COCc1c(Br)cccc1NC(=O)N(C)CCO` : -9.95

Record O=C(C1CCCO1)N1CCC(O)(Cn2ccc3ccncc32)CC1 (stereo not drawn) . Reported cytotoxicity at 10 µM: -29.9

Input `COc1cc(N2C[C@H]3CCC[C@@H](CN(C)C4CC4)[C@H]3C2)ncn1` . Output cytotoxicity at 10 µM: -73

Item: `Cc1cccc(CN2CCc3ncnc(NC4CCC4)c3CC2)n1` | cytotoxicity at 10 µM: -152

Summary for this compound, `COc1ccc(-c2cc(C(=O)NCCCn3ccnc3C)n(C)n2)cc1` : cytotoxicity at 10 µM is -6.67

In plain terms, `Cc1ccc(-c2noc([C@H](N)CC(C)C)n2)nn1` has a documented cytotoxicity at 10 µM of 1.27

The value of cytotoxicity at 10 µM measured for the compound `COC(=O)C(C)(C)NC(=O)c1scnc1Cl` turned out to be -2.31

# cytotoxicity at 10 µM (compound: `CC(C)NC(=O)N1CCC(n2ccc(C(F)(F)F)n2)CC1` ) is 3.02

Input `Clc1ccc(C2(NCc3noc(C4CC4)n3)CCC2)cc1` . Output cytotoxicity at 10 µM: 5.04

The compound listed as CC(C)C(=O)NC(Cc1cc(N(C)C)nc(C2CC2)n1)c1ccccc1 (stereo not drawn) shows cytotoxicity at 10 µM equal to 3.37

Lookup result for `COCCN1C[C@H]2[C@@H](C1)N(Cc1ccc(C)o1)CC[C@H]2OC` ; measured cytotoxicity at 10 µM: -8.34

Record `O=C(c1cc(-n2cccn2)ccn1)N1CCOc2ccc(F)cc21` , field cytotoxicity at 10 µM: 1.26

Entry under test: COCC1CC2(CCN(Cc3ccc(C)o3)CC2)CN1C(C)C (stereo not drawn) . Its cytotoxicity at 10 µM was -2.42

# cytotoxicity at 10 µM of `CNC(=O)CN1CC[C@H]2CN(C(=O)c3ccc(C)nc3)C[C@H]2C1` = 1.61

Record summary for Cc1[nH]c(=O)[nH]c(=O)c1CN1CCCC(CCc2ccccc2F)C1 (stereo not drawn) : reported cytotoxicity at 10 µM = -4.19

get_value(item= CC1(c2ccccc2)CCCN(Cc2cncn2C2CCCC2)C1 (stereo not drawn) , readout=cytotoxicity at 10 µM) returns 16.3

What the record says about `COCc1noc(CN2CC(=O)N(C)c3ccccc3C2=O)n1` : cytotoxicity at 10 µM is -6.3

Entry `Cc1nsc(N2CCN(C(=O)Nc3ccc4[nH]ccc4c3)CC2)n1` ; cytotoxicity at 10 µM = 4.52

Record summary for `Cn1ccnc1CN(CCO)C(=O)c1cnc2ccccc2c1` : reported cytotoxicity at 10 µM = 1.39

Note to self: cytotoxicity at 10 µM recorded for `CCCNC(=O)Cn1cc(OC)c(=O)cc1CSc1nc(C)cc(C)n1` was 4.46

Reported cytotoxicity at 10 µM ( `CCc1cn[nH]c1C1CCN(C(=O)c2cc(C#N)c(=O)[nH]c2C)CC1` ) = 2.39

What the record says about `COc1cc(N2CCn3cc(CNc4ccccn4)nc3C2)ncn1` : cytotoxicity at 10 µM is 13.1

# compound `CC(=O)N1CCCCC[C@@H]2[C@@H]1[C@H](c1cccc(F)c1)CN2C(C)=O` ; its cytotoxicity at 10 µM = 5.21

The compound identified as `Cc1ccc(F)cc1NC(=O)c1[nH]ncc1Br` registered its cytotoxicity at 10 µM at 15.7

Measured cytotoxicity at 10 µM of COc1cnc(CN2CC(=O)N(c3ccc(C)cc3)CC2C)cc1O (stereo not drawn) : 4.01

Kindly note the recorded cytotoxicity at 10 µM for O=C(O)c1ccccc1-c1ccc(CN2CCC(CO)C2)cc1 (stereo not drawn) , which is -14.6

cytotoxicity at 10 µM in this record for `CCc1nc(NC(=O)N(C)Cc2ccoc2)nn1C` : 0.79

Value of measured cytotoxicity at 10 µM for the entry `O[C@H]1CN(CCCOc2ccccc2F)CC[C@@]12CCCO2` : 3.06

Item: Cc1cc(C2CCCN(S(=O)(=O)c3cn(C)cn3)C2)ccn1 (stereo not drawn) | cytotoxicity at 10 µM: 3.42

The value of cytotoxicity at 10 µM measured for the compound CCc1nc(C2CCCN2Cc2nnc(C3CC3)o2)no1 (stereo not drawn) turned out to be -13.2

What the record says about `CC(=O)NCCNC(=O)Nc1cccc(Cl)c1SC(F)F` : cytotoxicity at 10 µM is -13.1

Entry COCC(=O)N1CCC2(COCc3cnc(N4CCOCC4)nc32)C1 (stereo not drawn) , cytotoxicity at 10 µM reported as -65

Lab note: measured cytotoxicity at 10 µM of CC(C)CN1C(=O)CO[C@@H]2CN(C(=O)C3CCOC3)C[C@H]21 (stereo partly drawn) was -70.3

// field: cytotoxicity at 10 µM; key: `CCCNC(=O)CCC(=O)N1CCC(c2noc3cc(F)ccc23)CC1` ; value = 2.45

response.value for `CCn1cc(S(=O)(=O)NC2(CN3CCOCC3)CCCCC2)c(C)n1` (field: cytotoxicity at 10 µM) = 1.88

Entry CNC(=O)c1cn[nH]c1C1(C)CCCN(Cc2ccccc2OC)C1 (stereo not drawn) , cytotoxicity at 10 µM reported as 0.353
